Experiment: Human HepG2 cell viability assay in 384 well format
Assay type: toxicity, cell-based
Design: dose 125 nL, time 70.5 hour; concentration not given beside the values
Details: HepG2 cells, read-out: Inhibition
endpoint.label: cytotoxicity at 70.5 h (%)
Answer with a number only, understood to be in %.

Field: example entries. Status: answers known.
- molecule: "COC(=O)c1cccc(-c2nc(CC3CCN(C)CC3)no2)c1"
  measurement.unit: "%"
  value.measured: -3.78
- molecule: "O=C1CC(C2CCCCC2)c2c(n(C3CCCC3)[nH]c2=O)N1 (configuration not stated)"
  measurement.unit: "%"
  value.measured: 2.99
- molecule: "CCN(CC)CCN(C)Cc1cn(C)nc1-c1ccc2c(c1)OCCO2"
  measurement.unit: "%"
  value.measured: 23.5
- molecule: "O=C(c1cccc2cccnc12)N1CCCC(n2ccnc2)C1 (configuration not stated)"
  measurement.unit: "%"
  value.measured: -5.33
- molecule: "Cn1cc(CN2CCc3nc4sccc4c(=O)n3CC2)cn1"
  measurement.unit: "%"
  value.measured: -3.58

## Input Give cytotoxicity at 70.5 h for O=C(c1ccc[nH]1)N1CC2(CCN(c3nccs3)C2)C1
## Output -3.73

## Input Give the reported value of cytotoxicity at 70.5 h for this record: CCOC1COC2(CCN(c3cccc(C)n3)CC2)C1 (configuration not stated)
## Output -2.34

## Input Give the measured cytotoxicity at 70.5 h for CC1CN(c2cc(CNCc3cccc4c3OCCO4)ccn2)CCO1 (configuration not stated)
## Output -10.3

## Input Return the recorded cytotoxicity at 70.5 h value; entry: c1cnc(N2CCC(OCCN3CCCCC3)C2)nc1 (configuration not stated)
## Output -10.2

## Input Assign cytotoxicity at 70.5 h to the following record: Cc1ccc(=O)n(CC2(O)CCN(Cc3cc(C)c(O)c(C)c3)CC2)n1
## Output 22.7

## Input Supply measured cytotoxicity at 70.5 h of CSCC(=O)Nc1ncc(I)cc1C in your reply.
## Output 11.6

## Input Supply cytotoxicity at 70.5 h value. Item: Nc1cc2c(nn1)CCN(C(=O)c1ccccc1Oc1cccnc1)C2
## Output -1.03

---

Measured cytotoxicity at 70.5 h, listed per entry for reference.
Test: Human HepG2 cell viability assay in 384 well format
Format: toxicity, cell-based
Design: dose 125 nL, time 70.5 hour; concentration not given beside the values
Conditions: HepG2 cells, read-out: Inhibition
The response must be a number in % with no trailing unit.

Some entries whose results are on file:
- compound: "CCC1(c2ccc(NS(=O)(=O)c3cccs3)cc2)CCC(=O)NC1=O (stereo unspecified)"
  value.measured: -1.8
- compound: "CCC1CN(C(=O)c2ccccc2N2CCOCC2)CCN1C(C)C (stereo unspecified)"
  value.measured: -1.59
- compound: "O=C1C(N2CCOC3(CCCC3)C2)CCN1C1CC1 (stereo unspecified)"
  value.measured: -1.76
- compound: "CCN1C[C@H]2C3(CCN(C(C)=O)CC3)CC[C@@]2(C(=O)N(C)C)C1"
  value.measured: -8.84
- compound: "CC(C)(C)n1cc(CNC2CCN(C(=O)c3ccco3)CC2)cn1"
  value.measured: 1.29
- compound: "CCc1cnc(N2C[C@H]3C[C@H](C(=O)NCC(C)C)[C@@H](C2)O3)nc1"
  value.measured: 2.56
- compound: "Cc1[nH]n(-c2ccccc2)c2nnc(N)c1-2"
  value.measured: -2.04
- compound: "CSC1(CNC(=O)NC(C)Cc2cccc(F)c2)CCOCC1 (stereo unspecified)"
  value.measured: 0.72
- compound: "O=C1NCCCCC1NC(=O)N1CCCc2cc(F)ccc21 (stereo unspecified)"
  value.measured: -4.74
- compound: "Cc1cc(C)c2cc(CNC(C)C)c3nn(C)c(=O)n3c2c1"
  value.measured: -1.75

# context switch: different compound, same cytotoxicity at 70.5 h
## Input Supply recorded cytotoxicity at 70.5 h for Cc1nc(C)n(CC2CN(Cc3cccs3)Cc3nccn3C2)n1 (stereo unspecified) here.
## Output -0.931

---

Assay: Human HepG2 cell viability assay in 384 well format
Type: toxicity, cell-based
Design: dose 125 nL, time 70.5 hour; concentration not given beside the values
Settings: HepG2 cells, read-out: Inhibition
Attribute: cytotoxicity at 70.5 h
Enter your answer as a number in %; do not include the unit.

Known cytotoxicity at 70.5 h results, listed for orientation:
- molecule: "CN1CCC(NC(=O)[C@H]2CC[C@@H]3[C@@H](CCN3c3ncccn3)O2)CC1"
  cytotoxicity at 70.5 h [%]: -6.76
- molecule: "CN(Cc1nc(C2CC2)no1)C(=O)C1COc2ccccc2C1 (centres undefined)"
  cytotoxicity at 70.5 h [%]: -0.624
- molecule: "CCc1nc(Nc2cccc(C(=O)NC)c2)c2c(n1)c(C)nn2CC"
  cytotoxicity at 70.5 h [%]: -11
- molecule: "Cn1cccc1C(=O)N1CCc2ncnc(N3CCCC3)c2CC1"
  cytotoxicity at 70.5 h [%]: -5.07
- molecule: "O=C(c1cn[nH]c1)N1CCC2(CCCN(Cc3ccc(F)c(F)c3)C2)C1 (centres undefined)"
  cytotoxicity at 70.5 h [%]: -8.34

// moving on: another record for cytotoxicity at 70.5 h
## Input Provide cytotoxicity at 70.5 h value for the following molecule: Cc1cc(C2CCCN(C(=O)Cc3csc(C(C)C)n3)C2)n[nH]1 (centres undefined)
## Output -5.03

---

Test: Human HepG2 cell viability assay in 384 well format
Type: toxicity, cell-based
Parameters: dose 125 nL, time 70.5 hour; concentration not given beside the values
Settings: HepG2 cells, read-out: Inhibition
endpoint.label: cytotoxicity at 70.5 h (%)
Could you give me the number in %? Just the number is fine.

Known results for compounds:
- compound: "CC(C)NC(=O)N1CCC2(CC(=O)N(c3ccsc3)C2)C1 (configuration not stated)"
  measurement.unit: "%"
  cytotoxicity at 70.5 h: -14.3
- compound: "N#Cc1cccnc1Oc1cc(F)c(CN2CCCC2)c(Cl)c1"
  measurement.unit: "%"
  cytotoxicity at 70.5 h: -1.54
- compound: "COc1ccc(CCN2CCOC(Cn3nc(C)nc3C)C2)cc1 (configuration not stated)"
  measurement.unit: "%"
  cytotoxicity at 70.5 h: -5.86
- compound: "O=C(C1CCCO1)N1CCc2nnc(Cn3cccc3)n2CC1 (configuration not stated)"
  measurement.unit: "%"
  cytotoxicity at 70.5 h: -7.61

Here is the next item to consider.
## Input Read the entry CCN(C)C(=O)CCC(=O)c1cccs1 and write its reported cytotoxicity at 70.5 h.
## Output -7.69

---

Listing of entries alongside the reported cytotoxicity at 70.5 h.
Experiment: Human HepG2 cell viability assay in 384 well format
Assay type: toxicity, cell-based
Design: dose 125 nL, time 70.5 hour; concentration not given beside the values
Conditions: HepG2 cells, read-out: Inhibition
Answer format: numeric, % implied, no suffix.

## Input Return cytotoxicity at 70.5 h (reported value) for this compound: NCC(=O)N1CCC2(CC1)CN(C(=O)Cc1ccc(Cl)cc1)CCO2
## Output -14.9

## Input Give reported cytotoxicity at 70.5 h value for Cc1ccc(CN2CCC3(CC2)C(=O)N(CC(C)C)CCN3C)s1
## Output 22.7

## Input Give the reported value of cytotoxicity at 70.5 h for this record: CC(Cn1cc(Br)cn1)C(=O)Nc1ccc(C(N)=O)cc1 (stereo not drawn)
## Output 7.39

## Input Answer with the recorded cytotoxicity at 70.5 h of CCCNC(=O)CNc1ccc2c(c1)N(C(=O)OC(C)(C)C)CCC2 only.
## Output 2.81

## Input Fill in reported cytotoxicity at 70.5 h for this entry: Cc1noc(C)c1CN(C)Cn1c(=O)oc2ccccc21
## Output 39.4

## Input Look up and state reported cytotoxicity at 70.5 h for CC(=O)c1cccc(S(=O)(=O)N2CSCC2C(=O)NCC(F)(F)F)c1 (stereo not drawn)
## Output 5.48

## Input // Input: CCn1cc(CNC(=O)CCn2ncc3c(Cl)cccc32)cn1 . Output its cytotoxicity at 70.5 h only.
## Output 17.5

## Input # return recorded cytotoxicity at 70.5 h for entry O=C1CC(NCc2cnc(-c3cccs3)nc2)CN1c1ccccc1 (stereo not drawn)
## Output -2.68

---

Some molecules, each annotated with its measured cytotoxicity at 70.5 h.
Assay: Human HepG2 cell viability assay in 384 well format
Format: toxicity, cell-based
Design: dose 125 nL, time 70.5 hour; concentration not given beside the values
Settings: HepG2 cells, read-out: Inhibition
State just the number; it will be interpreted in %.

- molecule: "CC(C)c1noc(CS(=O)(=O)CC(=O)NCCOc2ccccc2)n1"
  cytotoxicity at 70.5 h (%): -13.7
- molecule: "c1coc(CN2CCC3(CCOCC3COCC3CC3)CC2)c1 (stereo unspecified)"
  cytotoxicity at 70.5 h (%): 2.33
- molecule: "CC(C)(C)c1ncc(C(=O)NCc2ccccc2CN2CCCC2)s1"
  cytotoxicity at 70.5 h (%): -6.15
- molecule: "CNS(=O)(=O)c1ccccc1N1CCN(C(C)C(=O)OC)CC1 (stereo unspecified)"
  cytotoxicity at 70.5 h (%): -3.28

## Input Using known records, supply cytotoxicity at 70.5 h for N#Cc1ccc(CN2CCN(C(=O)CCn3cncn3)CC2)cc1
## Output 6.05

## Input Look up cytotoxicity at 70.5 h of CC(C)CN1CCC(NC(=O)N(C)Cc2csc3ccccc23)CC1 and report it.
## Output -3.08
